Property: melting point; scope: individual molecules

Solved entries:
[
  {
    "molecule": "CC1(C)CCNc2ccc(NC(=O)Nc3ccc([N+](=O)[O-])cc3)cc21",
    "measured": "219 to 220 °C"
  },
  {
    "molecule": "CCC1(CC)CC(CC)(CC)c2cc(NC(=O)Nc3ccc(C(F)(F)F)cc3)ccc2O1",
    "measured": "165 to 166 °C"
  },
  {
    "molecule": "CN1c2ccc(NC(=O)Nc3ccc([N+](=O)[O-])cc3)cc2C(C)(C)C(O)C1(C)C (stereo not drawn) [Compound 13a]",
    "measured": "215 to 217 °C"
  },
  {
    "molecule": "CN1c2ccc(NC(=O)Nc3ccc([N+](=O)[O-])cc3)cc2C(C)(C)C(=O)C1(C)C [Compound 11a]",
    "measured": "200 to 201 °C"
  }
]

Request: Look at this molecule and give its reported melting point. CN1c2ccc(NC(=O)Nc3ccc(OC(F)(F)F)cc3)cc2C(C)(C)C(=O)C1(C)C [Compound 11e]
Result: 191 to 192 °C

Request: Report melting point for CN1c2ccc(NC(=S)Nc3ccc([N+](=O)[O-])cc3)cc2C(C)(C)C(=O)C1(C)C [Compound 11b] please.
Result: 145 to 147 °C

Request: # lookup: melting point of CN1c2ccc(NC(=S)Nc3ccc(OC(F)(F)F)cc3)cc2C(C)(C)C(O)C1(C)C (stereo not drawn) [Compound 13f]
Result: 97 to 99 °C

Request: Please look up its melting point: "CC1(C)CC(C)(C)c2cc(NC(=O)Nc3ccc(C#N)cc3)ccc2O1"
Result: 225 to 226 °C

Request: I am curious: what melting point value has been reported for "CCC1(CC)CC(C)(C)Oc2ccc(NC(=O)Nc3ccc(C(F)(F)F)cc3)cc21" ?
Result: 225 to 226 °C

Request: Could you share which melting point value was measured for "CCC1(CC)CC(C)(C)c2cc(NC(=O)Nc3ccc(C(F)(F)F)cc3)ccc2O1" ?
Result: 208 to 210 °C

Request: Report melting point for "CC1(C)CC(C)(C)c2cc(NC(=O)Nc3ccc(C(F)(F)F)cc3)ccc2O1" please.
Result: 245 to 246 °C

Request: Which melting point value is on record for CN1c2ccc(NC(=S)Nc3ccc(OC(F)(F)F)cc3)cc2C(C)(C)C(=O)C1(C)C [Compound 11f] ?
Result: 83 to 85 °C

Request: What does the data say about its melting point? Entry: "CN1c2ccc(NC(=S)Nc3ccc([N+](=O)[O-])cc3)cc2C(C)(C)CC1(C)C"
Result: 151 to 153 °C

Request: # lookup: melting point of "CC1(C)CCOc2ccc(NC(=S)Nc3ccc(C(F)(F)F)cc3)cc21"
Result: 147 to 149 °C

Request: Which value of melting point has been reported for "CCC1(CC)CC(CC)(CC)c2cc(NC(=O)Nc3ccc(OC(F)(F)F)cc3)ccc2O1" in the records?
Result: 180 to 181 °C

Request: Give the measured melting point of "CC1(C)CC(C)(C)c2cc(NC(=S)Nc3ccc(S(N)(=O)=O)cc3)ccc2O1" .
Result: 186 to 187 °C

Request: Using the record for "CC1(C)CCOc2ccc(NC(=O)Nc3ccc(OC(F)(F)F)cc3)cc21" , report its melting point.
Result: 230 to 231 °C

Request: GET /values?readout=melting point&item= "CC1(C)CCNc2ccc(NC(=S)Nc3ccc(OC(F)(F)F)cc3)cc21"
Result: 69 to 71 °C

Request: Look up melting point: "CC1(C)CC(C)(C)c2cc(NC(=O)Nc3ccc(OC(F)(F)F)cc3)ccc2O1"
Result: 219 to 221 °C
